Numbers sourced from the supplement of paper PMC9170038.

# Test system: K4 kissing-loop RNA reporter;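 further: bound reporter read as fluorescence of individual clusters on recovered sequencing chips by microscopy, with normalized cluster intensities fitted with a binding model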
# assay.notes: apparent KD of K4 kissing-loop reporter; higher = weaker reporter binding
# assay.context: Eterna round: R107; input ligand: FMN 200 uM
For each of the sequences below, state its apparent KD of K4 kissing-loop reporter.
Answers are plain numbers, in nM.

>  <sequence.text>
AAGUGUGUGGCGGCCGCCACUAGAAUCCAGUGAUGUUGGAGUUAUCAUGUAAAUGAUAAUCAACAUAGGACCGGGCCAUAUAGAA [Same State - Tryptophan B (Freestyle 8)]

>  <readout>
apparent KD of K4 kissing-loop reporter

>  <reading>
630

$$$$
>  <sequence.text>
ACGCUAGCUACCGAAAGGUAGCUAGCGAGUGAGGAUAUGUGGAAACACAGAAGGCACAGCGCAGUGAUGUUGUGCGGCGGAAGCG [whbob_SS_FMNA__2th168]

>  <readout>
apparent KD of K4 kissing-loop reporter

>  <reading>
604

$$$$
>  <sequence.text>
UGUCAUUGGUCGGCCGCCACUUCAUAUAGAGUGAUGUUCUGAAAGACGGAUCGAAAGAUCUGUCGAAGGACCGGGACCGAUGACU [FiskerMod 12 - Jieux - Same State - Tryptophan B]

>  <readout>
apparent KD of K4 kissing-loop reporter

>  <reading>
1100

$$$$
>  <sequence.text>
UGAUACCAGACGGCCGCCACUCCUAGUGAUGUUAGGAACCUAAAAUAGCAUGUCAAAGACAUGCGGAGGACCGGGUCUGGUAUCU [TrypBX 23 #SwitchBubble #Palindromic #StaticStem]

>  <readout>
apparent KD of K4 kissing-loop reporter

>  <reading>
111

$$$$

# map each sequence to its apparent KD of K4 kissing-loop reporter
1. GCGCGCGGCGGAGGAUAUAGCCGGUGAUCCGAGAAAGUGAGUGAUGUUUACGGAGUUGAGGAUAUGUUAGAAGGCCGCCGCGCGC [abcdefghijklmnopqrstuvwx]
2. UUAUUAUAUUGUAAUGAUAUAGAAACCGAAGGAGCGACAUAAAAGUCAGGUAGGUCGCGGUGUACUCAGUGAUGUUGAGAGUAUU [JR_SSArginiA_Sub013]
3. GGUGGCGUUGUUGACAGCUCACCACGAGCCAAGGAUAUAGUUUCUUCUAGAAGGUGGAAUGACAAGUGAUGUUUGUACGACUGCU [theeternabot_exclusion_KL_FMN_A_28]

Outgoing:
1: 339; 2: 141; 3: 254
